Values were extracted from paper PMC9369794.

Listed next: entries and their corresponding mean size (hydrodynamic diameter).
- Protocol summary: Hydrodynamic diameter and colloidal stability of aggregates by dynamic light scattering
- Assay type: physicochemical
- Stated conditions: 0.3125 μM in PBS from DMSO stock, 37 °C
Record the result as number plus unit.

[[record]]
molecule = "CC1=C[C@H](OC(=O)CCC(=O)O)CC(C)(C)[C@H]1/C=C/C(C)=C/C=C/C(C)=C/C=C/C=C(C)/C=C/C=C(C)/C=C/C1=C(C)C[C@@H](OC(=O)CCC(=O)O)CC1(C)C [Compound 10, Lutein bissuccinate]"
assay_value = "453.5 nm"

[[record]]
molecule = "CC1=C(/C=C/C(C)=C/C=C/C(C)=C/C=C/C=C(C)/C=C/C=C(C)/C=C/C2=C(C)C[C@@H](OC(=O)CCC(=O)O)CC2(C)C)C(C)(C)CCC1 [Compound 8, β-Cryptoxanthin succinate]"
assay_value = "11.04 nm"

[[record]]
molecule = "COc1ccc2[nH]cc(CCNC(=O)CNC(=O)CCC(=O)O[C@@H]3CC(C)=C(/C=C/C(C)=C/C=C/C(C)=C/C=C/C=C(C)/C=C/C=C(C)/C=C/C4C(C)=C[C@@H](OC(=O)CCC(=O)NCC(=O)NCCc5c[nH]c6ccc(OC)cc56)CC4(C)C)C(C)(C)C3)c2c1 (stereo partly shown) [Compound 16, Lutein-bismelatonin conjugate]"
assay_value = "131.20 nm"


Now take the following molecule into account.
[ask] Which measured mean size (hydrodynamic diameter) value corresponds to COc1ccc2[nH]cc(CCNC(=O)CNC(=O)CCC(=O)O[C@@H]3CC(C)=C(/C=C/C(C)=C/C=C/C(C)=C/C=C/C=C(C)/C=C/C=C(C)/C=C/C4=C(C)CCCC4(C)C)C(C)(C)C3)c2c1 [Compound 15, Cryptoxanthin-melatonin conjugate] ?
[reply] 29.79 nm

----------
- Protocol summary: Study of aggregation by UV-Vis spectrophotometry
- Assay type: physicochemical
- Stated conditions: starting from THF solutions
Observable: change of UV spectrum with increasing ratio of PBS

[[record]]
molecule = "COc1ccc2[nH]cc(CCNC(=O)CNC(=O)CCC(=O)O[C@@H]3CC(C)=C(/C=C/C(C)=C/C=C/C(C)=C/C=C/C=C(C)/C=C/C=C(C)/C=C/C(=O)[C@]4(C)C[C@@H](OC(=O)CCC(=O)NCC(=O)NCCc5c[nH]c6ccc(OC)cc56)CC4(C)C)C(C)(C)C3)c2c1 [Compound 17, Capsanthin-dimelatonin conjugate]"
assay_value = "bathochromic shift"

[[record]]
molecule = "COc1ccc2[nH]cc(CCNC(=O)CNC(=O)CCC(=O)O[C@@H]3CC(C)=C(/C=C/C(C)=C/C=C/C(C)=C/C=C/C=C(C)/C=C/C=C(C)/C=C/C4=C(C)C[C@@H](O)CC4(C)C)C(C)(C)C3)c2c1 [Compound 13, Zeaxanthin-monomelatonin conjugate]"
assay_value = "bathochromic shift"

[[record]]
molecule = "COc1ccc2[nH]cc(CCNC(=O)CNC(=O)CCC(=O)O[C@@H]3CC(C)=C(/C=C/C(C)=C/C=C/C(C)=C/C=C/C=C(C)/C=C/C=C(C)/C=C/C4=C(C)C[C@@H](OC(=O)CCC(=O)NCC(=O)NCCc5c[nH]c6ccc(OC)cc56)CC4(C)C)C(C)(C)C3)c2c1 [Compound 14, Zeaxanthin-bismelatonin conjugate]"
assay_value = "bathochromic shift"


----------
- Protocol summary: Hydrodynamic diameter and colloidal stability of aggregates by dynamic light scattering
- Type: physicochemical
- Stated conditions: 1.25 μM in PBS; sd^2/mean size^2
Observable: PDI
Number only, no unit.

Example results:
[[record]]
compound = "CC1=C(/C=C/C(C)=C/C=C/C(C)=C/C=C/C=C(C)/C=C/C=C(C)/C=C/C2=C(C)C[C@@H](OC(=O)CCC(=O)O)CC2(C)C)C(C)(C)C[C@H](OC(=O)CCC(=O)O)C1 [Compound 7, Zeaxanthin bissuccinate]"
observable = "PDI"
assay_value = 0.0294

[[record]]
compound = "CC1=C(/C=C/C(C)=C/C=C/C(C)=C/C=C/C=C(C)/C=C/C=C(C)/C=C/C2=C(C)C[C@@H](OC(=O)CCC(=O)O)CC2(C)C)C(C)(C)C[C@H](O)C1 [Compound 11, Zeaxanthin monossuccinate]"
observable = "PDI"
assay_value = 0.0310

[[record]]
compound = "COc1ccc2[nH]cc(CCNC(=O)CNC(=O)CCC(=O)OC/C(C)=C/C=C/C(C)=C/C=C/C=C(C)/C=C/C=C(C)/C=C/C3=C(C)CCCC3(C)C)c2c1 [Compound 18, 8′-Apo-β-carotenol-melatonin conjugate]"
observable = "PDI"
assay_value = 0.0726

[[record]]
compound = "COc1ccc2[nH]cc(CCNC(=O)CNC(=O)CCC(=O)O[C@@H]3CC(C)=C(/C=C/C(C)=C/C=C/C(C)=C/C=C/C=C(C)/C=C/C=C(C)/C=C/C(=O)[C@]4(C)C[C@@H](OC(=O)CCC(=O)NCC(=O)NCCc5c[nH]c6ccc(OC)cc56)CC4(C)C)C(C)(C)C3)c2c1 [Compound 17, Capsanthin-dimelatonin conjugate]"
observable = "PDI"
assay_value = 0.1362

[[record]]
compound = "COc1ccc2[nH]cc(CCNC(=O)CNC(=O)CCC(=O)O[C@@H]3CC(C)=C(/C=C/C(C)=C/C=C/C(C)=C/C=C/C=C(C)/C=C/C=C(C)/C=C/C4=C(C)C[C@@H](O)CC4(C)C)C(C)(C)C3)c2c1 [Compound 13, Zeaxanthin-monomelatonin conjugate]"
observable = "PDI"
assay_value = 0.0270

[[record]]
compound = "CC1=C[C@H](OC(=O)CCC(=O)O)CC(C)(C)[C@H]1/C=C/C(C)=C/C=C/C(C)=C/C=C/C=C(C)/C=C/C=C(C)/C=C/C1=C(C)C[C@@H](OC(=O)CCC(=O)O)CC1(C)C [Compound 10, Lutein bissuccinate]"
observable = "PDI"
assay_value = 0.0608


[ask] Entry COc1ccc2[nH]cc(CCNC(=O)CNC(=O)CCC(=O)O[C@@H]3CC(C)=C(/C=C/C(C)=C/C=C/C(C)=C/C=C/C=C(C)/C=C/C=C(C)/C=C/C4=C(C)CCCC4(C)C)C(C)(C)C3)c2c1 [Compound 15, Cryptoxanthin-melatonin conjugate] : reported PDI = ?
[reply] 0.1051

[ask] Same again, this time with CC1=C(/C=C/C(C)=C/C=C/C(C)=C/C=C/C=C(C)/C=C/C=C(C)/C=C/C2=C(C)C[C@@H](OC(=O)CCC(=O)O)CC2(C)C)C(C)(C)CCC1 [Compound 8, β-Cryptoxanthin succinate]
[reply] 0.0723
